// data source = patent US9580409B2

measurement.target: mu-opioid receptor (Homo sapiens, UniProt P35372)
Sequence (P35372 whole entry, species assumed): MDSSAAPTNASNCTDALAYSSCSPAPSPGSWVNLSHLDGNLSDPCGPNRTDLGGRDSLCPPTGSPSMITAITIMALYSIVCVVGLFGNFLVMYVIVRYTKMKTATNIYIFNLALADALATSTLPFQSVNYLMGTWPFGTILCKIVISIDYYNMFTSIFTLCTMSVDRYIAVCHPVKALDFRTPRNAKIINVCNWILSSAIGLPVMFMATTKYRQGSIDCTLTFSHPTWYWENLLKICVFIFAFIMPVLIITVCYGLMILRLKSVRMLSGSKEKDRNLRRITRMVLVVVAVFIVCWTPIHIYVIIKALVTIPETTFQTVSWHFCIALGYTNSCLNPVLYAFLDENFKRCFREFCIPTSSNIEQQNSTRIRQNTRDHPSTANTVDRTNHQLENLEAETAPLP
assay.text: biochemical
assay.setup: […]; class symbol combines EC50 and efficacy; read-out: GTP Activity
pEC50: −log10 of the molar value.
measurement.type: pEC50

1. CNC1=C(c2nc3ccccc3[nH]2)C(=O)[C@@]2(CCOC2)N1c1cc(OC)cc(OC)c1 | > 7.00
2. CNC1=C(c2nc3ccccc3[nH]2)C(=O)[C@](C)(CNC(=O)COC)N1c1cc(OC)cc(OC)c1 | 6.00 to 7.00
3. COc1cc(OC)cc(N2C(N)=C(c3nc4ccccc4[nH]3)C(=O)C2CCN)c1 (stereo not shown) | 5.00 to 6.00
4. CNC1=C(c2nc3ccccc3[nH]2)C(=O)C(C)(CCNC(C)=O)N1c1cc(OC)cc(OC)c1 (stereo not shown) | > 7.00
5. CCC(=O)NCCC1(C)C(=O)C(c2nc3ccccc3[nH]2)=C(NC)N1c1cc(OC)cc(OC)c1 (stereo not shown) | > 7.00
6. COc1cc(OC)cc(N2C(N)=C(c3nc4ccccc4[nH]3)C(=O)[C@]23C[C@H](O)C3)c1 | 6.00 to 7.00
7. COc1cc(OC)cc(N2C(N)=C(c3nc4ccccc4[nH]3)C(=O)[C@@]2(C)CCNC(C)=O)c1 | 6.00 to 7.00
8. CNC1=C(c2nc3ccccc3[nH]2)C(=O)C(C)(CC(C)O)N1c1cc(OC)cc(OC)c1 (stereo not shown) | > 7.00
9. CNC1=C(c2nc3ccccc3[nH]2)C(=O)[C@@](C)(CCO)N1c1cc(OC)cc(OC)c1 | 6.00 to 7.00
10. CNC1=C(c2nc3ccccc3[nH]2)C(=O)C(C)(CCOC)N1c1cc(OC)cc(OC)c1 (stereo not shown) | > 7.00
11. CNC1=C(c2nc3ccccc3[nH]2)C(=O)[C@](C)(CCOC)N1c1cc(OC)cc(OC)c1 | 6.00 to 7.00
12. CNc1c(-c2nc3ccccc3[nH]2)c(=O)n(C2COC2)n1-c1cc(OC)cc(OC)c1 | > 7.00
13. CNC1=C(c2nc3ccccc3[nH]2)C(=O)[C@]2(CCCOC2)N1c1cc(OC)cc(OC)c1 | > 7.00
14. COc1cc(OC)cc(N2C(N)=C(c3nc4ccccc4[nH]3)C(=O)[C@H]2CCO)c1 | 6.00 to 7.00
15. COc1cc(OC)cc(N2C(N)=C(c3nc4ccccc4[nH]3)C(=O)C2CC(=O)O)c1 (stereo not shown) | 5.00 to 6.00
16. CNC1=C(c2nc3ccccc3[nH]2)C(=O)C2(CCC(O)C2)N1c1cc(OC)cc(OC)c1 (stereo not shown) | > 7.00
